- ASSAYED SYSTEM: T1, Rae1(31-368)-Nup98(157-213) heterodimer (human, UniProt P78406 31-368; P52948 157-213)
- T1 construct: also called Rae1-Nup98; Rae1-Nup98 complex
- T1 sequence (P78406 31-368, chain 1 of 2): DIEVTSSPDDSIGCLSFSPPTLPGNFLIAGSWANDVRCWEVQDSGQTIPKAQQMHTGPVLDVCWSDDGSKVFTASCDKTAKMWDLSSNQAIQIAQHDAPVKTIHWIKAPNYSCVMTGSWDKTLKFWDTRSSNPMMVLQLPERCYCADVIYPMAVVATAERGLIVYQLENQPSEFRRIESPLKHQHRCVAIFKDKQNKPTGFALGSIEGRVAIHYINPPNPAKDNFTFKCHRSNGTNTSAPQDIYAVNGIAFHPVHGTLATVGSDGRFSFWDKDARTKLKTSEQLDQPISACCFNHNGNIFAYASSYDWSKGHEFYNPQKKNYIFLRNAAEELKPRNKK
- T1 sequence (P52948 157-213, chain 2 of 2): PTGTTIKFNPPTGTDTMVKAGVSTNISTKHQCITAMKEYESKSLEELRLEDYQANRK
- MEASUREMENT NOTES: ITC
- RUN CONDITIONS: both partners purified
Field: Ka. Provide a value for each of the binders that follow.
The answer is to be given in M⁻¹; state only the numeric part.

Endpoint output: Ka of YSQLDEEQPMEIA (source: synthetic peptide) [SARS-CoV-2 ORF6-D61A] . Value?
361000

What do you get for YSQLDEEQPMEAD (source: synthetic peptide) [SARS-CoV-2 ORF6-I60A] ?
238000

What do you get for YSQLDEEQAMEID (source: synthetic peptide) [SARS-CoV-2 ORF6-P57A] ?
1.12e+06

What do you get for YSQLDEEQPLEID (source: synthetic peptide) [SARS-CoV-2 ORF6-M58L] ?
96400

What do you get for YSQLDEEQPMAID (source: synthetic peptide) [SARS-CoV-2 ORF6-E59A] ?
606000
